Compiled log10(IC50) measurements on DNA (cytosine-5)-methyltransferase 1 (Homo sapiens) taken from the literature.
Sequence (P26358 whole entry): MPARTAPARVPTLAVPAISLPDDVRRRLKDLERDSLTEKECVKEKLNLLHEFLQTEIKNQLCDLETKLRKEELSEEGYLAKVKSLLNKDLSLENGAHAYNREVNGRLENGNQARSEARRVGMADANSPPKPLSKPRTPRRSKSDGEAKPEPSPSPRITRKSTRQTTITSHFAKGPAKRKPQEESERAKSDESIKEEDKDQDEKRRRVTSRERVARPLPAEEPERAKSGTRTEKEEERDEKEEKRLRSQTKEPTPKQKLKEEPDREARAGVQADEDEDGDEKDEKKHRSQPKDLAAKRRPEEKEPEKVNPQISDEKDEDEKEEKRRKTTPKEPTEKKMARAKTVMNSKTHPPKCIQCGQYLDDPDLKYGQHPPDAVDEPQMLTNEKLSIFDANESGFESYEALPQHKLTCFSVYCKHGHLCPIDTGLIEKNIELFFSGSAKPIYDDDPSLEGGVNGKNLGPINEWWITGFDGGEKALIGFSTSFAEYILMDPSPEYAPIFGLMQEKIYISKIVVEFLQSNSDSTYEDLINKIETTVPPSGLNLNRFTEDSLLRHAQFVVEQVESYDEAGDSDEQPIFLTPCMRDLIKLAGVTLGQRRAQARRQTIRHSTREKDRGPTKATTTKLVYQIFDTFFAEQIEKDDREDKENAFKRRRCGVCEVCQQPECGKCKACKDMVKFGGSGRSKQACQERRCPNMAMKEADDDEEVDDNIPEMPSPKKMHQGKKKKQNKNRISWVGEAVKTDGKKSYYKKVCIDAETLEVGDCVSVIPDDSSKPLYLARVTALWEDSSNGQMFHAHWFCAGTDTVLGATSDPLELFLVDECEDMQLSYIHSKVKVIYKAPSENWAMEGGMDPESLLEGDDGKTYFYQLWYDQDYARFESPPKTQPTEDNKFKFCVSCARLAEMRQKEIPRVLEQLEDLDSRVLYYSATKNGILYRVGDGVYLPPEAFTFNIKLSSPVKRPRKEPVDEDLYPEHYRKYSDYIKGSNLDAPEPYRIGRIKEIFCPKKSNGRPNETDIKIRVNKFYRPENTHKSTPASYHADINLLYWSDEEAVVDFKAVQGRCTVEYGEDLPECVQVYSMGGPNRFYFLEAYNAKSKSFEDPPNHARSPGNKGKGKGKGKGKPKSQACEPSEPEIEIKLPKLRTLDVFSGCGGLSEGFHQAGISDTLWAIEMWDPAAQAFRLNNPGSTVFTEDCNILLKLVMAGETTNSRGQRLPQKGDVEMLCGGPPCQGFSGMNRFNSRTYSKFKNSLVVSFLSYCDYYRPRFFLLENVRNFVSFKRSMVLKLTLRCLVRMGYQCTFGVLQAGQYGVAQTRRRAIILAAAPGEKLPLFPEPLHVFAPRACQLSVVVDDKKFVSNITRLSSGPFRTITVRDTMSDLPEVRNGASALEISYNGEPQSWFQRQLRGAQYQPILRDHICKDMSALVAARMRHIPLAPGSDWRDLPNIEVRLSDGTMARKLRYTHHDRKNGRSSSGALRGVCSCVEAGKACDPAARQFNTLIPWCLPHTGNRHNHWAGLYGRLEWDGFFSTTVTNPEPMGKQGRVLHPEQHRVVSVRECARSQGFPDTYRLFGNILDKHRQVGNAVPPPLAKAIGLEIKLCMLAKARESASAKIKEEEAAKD
In our notation, the value equals log10 of IC50 in µM.

Example results:
Compound: CCCc1cc(C)[nH]c(=O)c1CNC(=O)c1cc(-c2ccc(N3CCN(C)CC3)nc2)cc2c1cnn2C(C)C
log10(IC50): 2.08
//
Compound: COc1cc2c(NCC3CCC(c4ccc(C(=O)NO)cc4)CC3)cc(-c3ccc(C)o3)nc2cc1OCCCN1CCCC1 (stereo unspecified)
log10(IC50): 0.44
//
Compound: N#Cc1cn([C@@H]2O[C@H](CSCC[C@H](N)C(=O)O)[C@@H](O)[C@H]2O)c2ncnc(N)c12
log10(IC50): -0.82
//
Compound: O=C(O)[C@@H]1C[C@H](SC[C@H]2O[C@@H](n3cnc4c(NCCc5ccc(-c6ccccc6)cc5)nc(Cl)nc43)[C@H](O)[C@@H]2O)CN1
log10(IC50): 0.40
//
Compound: O=C(NO)C1CCN(C[C@@H](O)COC(Cn2c3ccccc3c3ccccc32)Cn2c3ccccc3c3ccccc32)CC1
log10(IC50): 0.31

Okay, here is my list. What is log10(IC50) for each of these?
1. COc1cc2nc(-c3ccc(C)o3)cc(N[C@H]3CC[C@@H](C(=O)NO)CC3)c2cc1OC
2. COc1cc2nc(-c3ccc(C)o3)cc(N[C@H]3CC[C@H](C(=O)NO)CC3)c2cc1OC
3. COC(=O)[C@@H]1C[C@H](SC[C@H]2O[C@@H](n3cnc4c(N)ncnc43)[C@H](O)[C@@H]2O)CN1
4. Nc1ncnc2c1ncn2[C@@H]1O[C@H](CC(N)CC2CCCCC2)[C@@H](O)[C@H]1O (stereo partly specified)
5. Nc1ncnc2c1ncn2[C@@H]1O[C@H](CS[C@H]2CCN[C@H](C(=O)O)C2)[C@@H](O)[C@H]1O
6. COc1cc2c(NCC3CCN(C4CCC(C(=O)NO)CC4)CC3)cc(-c3ccc(C)o3)nc2cc1OCCCN1CCCC1 (stereo unspecified)

Output line:
1. 0.42
2. 0.62
3. 0.60
4. 2.25
5. 0.90
6. -0.25

Value of measured log10(IC50) for the entry Nc1ncnc2c1ncn2[C@@H]1O[C@H](CS[C@H]2CCNC2)[C@@H](O)[C@H]1O : 1.64
